- measurementTarget: PDK1 (Homo sapiens)
- Sequence (O15530 whole entry): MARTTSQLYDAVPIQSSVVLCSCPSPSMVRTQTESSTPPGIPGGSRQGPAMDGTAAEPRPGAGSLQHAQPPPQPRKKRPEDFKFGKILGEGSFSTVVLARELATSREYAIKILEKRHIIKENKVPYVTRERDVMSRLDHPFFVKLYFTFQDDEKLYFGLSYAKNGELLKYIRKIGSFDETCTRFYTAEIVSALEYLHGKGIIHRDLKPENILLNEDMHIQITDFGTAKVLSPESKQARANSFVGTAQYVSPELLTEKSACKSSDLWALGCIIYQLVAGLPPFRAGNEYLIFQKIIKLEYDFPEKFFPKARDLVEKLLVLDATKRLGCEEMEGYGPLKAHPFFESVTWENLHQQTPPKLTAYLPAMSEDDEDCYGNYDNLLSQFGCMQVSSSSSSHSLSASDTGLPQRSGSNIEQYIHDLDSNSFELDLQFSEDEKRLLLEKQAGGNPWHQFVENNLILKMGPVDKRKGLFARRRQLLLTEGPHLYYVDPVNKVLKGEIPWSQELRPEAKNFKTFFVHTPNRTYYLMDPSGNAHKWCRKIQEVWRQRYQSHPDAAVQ
- assaySummary: SelectScreen kinase profiling: PDK1
- Format: biochemical
- testConditions: 1 µM compound; [ATP] 100 µM; single point

compound: O=P(O)(O)O[C@@H]1[C@H](O)[C@H](O)[C@@H](OP(=O)(O)O)[C@H](OP(=O)(O)O)[C@H]1O
% Inhibition Mean: 17%
--
compound: O=P(O)(O)O[C@H]1[C@H](OP(=O)(O)O)[C@@H](OP(=O)(O)O)[C@@H](O)[C@@H](O)[C@@H]1OP(=O)(O)O [Ins(1,4,5,6)P4]
% Inhibition Mean: 33%
--
compound: O=P(O)(O)OC1C(O)C(OP(=O)(O)O)C(OP(=O)(O)O)C(OP(=O)(O)O)C1OP(=O)(O)O (stereo not drawn) [InsP5, inositol 1,3,4,5,6-pentakisphosphate]
% Inhibition Mean: 68%
